# Test system: NCI-H1563
# measurement_protocol: relative viability (nuclei count vs DMSO), 5 days (fraction); higher = more cells survive
# particulars: first compound 0.01 µM
Exercise: state measured relative viability for each of the compounds provided.

Past entries and their recorded results:
>>> result("O=c1cc(N2CCOCC2)oc2c(-c3cccc4c3sc3ccccc34)cccc12 + COc1cc2c(Oc3ccc(NC(=O)C4(C(=O)Nc5ccc(F)cc5)CC4)cc3F)ccnc2cc1OCCCN1CCOCC1 [Foretinib] (partner 0.25 µM)")
0.913
>>> result("CCN(CC)CCCCNc1ncc2cc(-c3cc(OC)cc(OC)c3)c(NC(=O)NC(C)(C)C)nc2n1 + Cc1nc(NC(=O)N2CCC[C@H]2C(N)=O)sc1-c1ccnc(C(C)(C)C(F)(F)F)c1 [Alpelisib] (partner 2 µM)")
0.849

For every listed record, write down its relative viability.
1. CCN(CC)CCCCNc1ncc2cc(-c3cc(OC)cc(OC)c3)c(NC(=O)NC(C)(C)C)nc2n1 + COc1cc2c(Oc3ccc(NC(=O)C4(C(=O)Nc5ccc(F)cc5)CC4)cc3F)ccnc2cc1OCCCN1CCOCC1 [Foretinib] (partner 0.25 µM)
2. CCN(CC)CCCCNc1ncc2cc(-c3cc(OC)cc(OC)c3)c(NC(=O)NC(C)(C)C)nc2n1 + COc1cccc2cc(-c3nc([C@H]4CC[C@H](C(=O)O)CC4)n4ncnc(N)c34)[nH]c12 [OSI-027] (partner 0.5 µM)
3. CCN(CC)CCCCNc1ncc2cc(-c3cc(OC)cc(OC)c3)c(NC(=O)NC(C)(C)C)nc2n1 + C[C@]1(O)C[C@@H](c2nc(-c3ccc4ccc(-c5ccccc5)nc4c3)c3c(N)nccn32)C1 [Linsitinib] (partner 1 µM)
4. CCN(CC)CCCCNc1ncc2cc(-c3cc(OC)cc(OC)c3)c(NC(=O)NC(C)(C)C)nc2n1 + CC(C)C[C@H](NC(=O)[C@H](Cc1ccccc1)NC(=O)c1cnccn1)B(O)O [Bortezomib] (partner 0.002 µM)

-- reply
1: 0.921; 2: 0.766; 3: 1.29; 4: 0.722

For each of the compounds below, note its relative viability.
1. CCN(CC)CCCCNc1ncc2cc(-c3cc(OC)cc(OC)c3)c(NC(=O)NC(C)(C)C)nc2n1 + CCNC(=O)c1noc(-c2cc(C(C)C)c(O)cc2O)c1-c1ccc(CN2CCOCC2)cc1 [Luminespib] (partner 0.01 µM)
2. O=c1cc(N2CCOCC2)oc2c(-c3cccc4c3sc3ccccc34)cccc12 + N=C(N)NC(=N)NCCc1ccccc1 [Phenformin] (partner 250 µM)
3. CCN(CC)CCCCNc1ncc2cc(-c3cc(OC)cc(OC)c3)c(NC(=O)NC(C)(C)C)nc2n1 + C[C@@H](Oc1cc(-c2cnn(C3CCNCC3)c2)cnc1N)c1c(Cl)ccc(F)c1Cl [Crizotinib] (partner 1 µM)
4. CCN(CC)CCCCNc1ncc2cc(-c3cc(OC)cc(OC)c3)c(NC(=O)NC(C)(C)C)nc2n1 + CS(=O)(=O)N1CCN(Cc2cc3nc(-c4cccc5[nH]ncc45)nc(N4CCOCC4)c3s2)CC1 [Pictilisib] (partner 1 µM)

-- reply
0.537
0.644
0.86
0.63

Values compiled from the supplement of paper PMC10307832.
